Biological target: human ApoC3 (human)
Sequence (chain, as listed by the source): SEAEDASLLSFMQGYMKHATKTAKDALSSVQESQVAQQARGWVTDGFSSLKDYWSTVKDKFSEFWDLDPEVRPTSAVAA
Test: SPR pH 7.4
MEASUREMENT_TYPE: pKd
Give only the number. pKd is defined as minus log10 of concentration in molar units.

What does the record list as pKd for 5E5VH5_VL8 IgG1 (antibody, V domains shown) VH: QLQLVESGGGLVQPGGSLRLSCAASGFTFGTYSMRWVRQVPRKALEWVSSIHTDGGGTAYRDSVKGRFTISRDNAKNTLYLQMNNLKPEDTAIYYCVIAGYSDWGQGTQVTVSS VL: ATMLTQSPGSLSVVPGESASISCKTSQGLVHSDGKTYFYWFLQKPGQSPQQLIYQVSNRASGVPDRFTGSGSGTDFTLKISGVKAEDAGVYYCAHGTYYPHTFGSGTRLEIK ?
9.01
